Test system: HL-60(TB) leukemia
test-summary: NCI-60 one-dose screen, 48 h (100 = growth as untreated, 0 = no growth, -100 = all killed)
details: 10 µM unless noted
The panel holds about 83,000 compounds, 20% with a hit somewhere; the sample as a whole holds those more often.
I'd appreciate it if you could supply growth values for the items below.
Number only, in %; omit the unit.

IN: If you can, please state the reported growth value of Cc1cc(CO)c(O)c(CO)c1 .
OUT: 80.5

IN: Request the reported growth associated with O=C(COc1ccc(/C=C2\Oc3ccccc3C2=O)cc1)c1ccc(Cl)cc1
OUT: 94.5

IN: Recorded growth for COc1ccc(/C=N/C2=C(C#N)C(c3ccccc3)c3ccc4ccccc4c3O2)cc1 (stereo not drawn) , please?
OUT: 1.71

IN: # input compound: CC1SC(c2ccccc2O)N(NC(=O)CCC(=O)c2nc3ncccc3[nH]2)C1=O (stereo not drawn) ; wanted: its growth
OUT: 101

IN: Need growth of Cc1oc2nc[nH]c(=O)c2c1C(=O)/C=C/c1ccc(Br)cc1 , thanks.
OUT: -4.98

IN: // query growth value for entry COc1ccc(/C=C/c2nc(Nc3ccc(S(=O)(=O)Nc4cc(C)on4)cc3)c3ccccc3n2)cc1
OUT: 80.9

IN: Need growth, item C=C1SC(=Nc2ccccc2Cl)N(C(=O)c2sc3ccccc3c2Cl)C1(C)C
OUT: 1.29

IN: Which growth is reported for this compound? Cc1ccc(S(=O)(=O)NC(=O)n2cc(-c3ccncc3)c(-c3ccc(Cl)c(O)c3)n2)cc1
OUT: 85.1

IN: Report growth for Clc1cc(Cl)c(Cl)c(-c2nc(-c3cccnc3)cs2)c1 please.
OUT: -3.35

IN: Which growth value belongs to Cc1ccc(Nc2cc(N)nc(N)n2)cc1 ?
OUT: 99.6

IN: What growth value was documented for this compound, O=C1O[C@H]([C@H](O)CO)C(O)=C1O ?
OUT: 99.5

IN: What growth value was documented for this compound, COc1cc(OC)cc(C2C(C#N)=C(N)Oc3c2ccc2ccc(O)cc32)c1 (stereo not drawn) ?
OUT: -23.8

IN: For the compound shown here, CNC(=O)c1c(NC(=O)c2ccc(C(C)(C)C)cc2)sc2c(CN(C)C)c(O)ccc12 , give the reported growth.
OUT: -33

IN: Which growth is listed for C=C(CN1CCN(c2cccc(C(F)(F)F)n2)CC1)c1ccc(C(=O)Nc2ccccc2N)cc1 ?
OUT: -27.4

IN: Can you look up the measured growth of N#Cc1c(N)n(CCNC(=O)c2ccccc2)c2nc3ccccc3nc12 for me?
OUT: 34.5

IN: Which growth is reported for this compound? CC/C=C\C=C/C(=O)N/C=C/CC1Cc2cccc(O)c2C(=O)O1 (stereo not drawn)
OUT: 17.4

IN: Recorded growth of c1cn2cc(-c3ccc4ncn(C5CCCCC5)c4c3)nc(-c3ccc4c(c3)ncn4C3CCCCC3)c2n1 , please.
OUT: -42.2

IN: # input compound: Cc1ccc(S(=O)(=O)n2cc(CNc3ccc(N4CCOCC4=O)cc3)c3ccccc32)cc1 ; wanted: its growth
OUT: 66.7

IN: Look up growth for this compound: Cc1cccc(/C=C2\N=C(c3ccccc3)N(c3ccc(S(N)(=O)=O)cc3)C2=O)c1
OUT: 92.7

IN: Please look up its growth: CCOC(=O)C/C(=N\Nc1cc(=O)[nH]c2ccc(Cl)cc12)C(=O)OCC
OUT: 90.6

IN: Tell me the measured growth of COc1ccc(C(=O)c2cc3c(N)c(C(=O)Nc4ccccc4)sc3nc2C)cc1 , please.
OUT: -46

IN: # input compound: C/C(=N\O)C(=O)NCCCCCC(=O)Nc1ccccc1 ; wanted: its growth
OUT: 93.2

IN: Please report the recorded growth for C#C[C@@]1(O)[C@@H](CO)O[C@@H](n2cc(-c3ccco3)c3c(N)ncnc32)[C@@H]1O .
OUT: 89

IN: Could you tell me which growth is on file for Cc1ccc(S(=O)(=O)OCC(=O)Nc2ccc(C(=O)O)c(O)c2)cc1 ?
OUT: 60.4

IN: Please give the measured growth for this compound: CC(C)(C)CC(C)(C)Nc1c(-c2c(O)c3ccccc3oc2=O)nc2sc3ccccc3n12
OUT: 21.6

IN: // growth lookup, key: C=C(C)[C@@H]1CC[C@]2(C(=O)N3CCN(C)CC3)CC[C@]3(C)[C@H](CC[C@@H]4[C@@]5(C)C/C(=C/c6cccnc6)C(=O)C(C)(C)[C@@H]5CC[C@]43C)[C@@H]12
OUT: -4.95

IN: Suppose we examine the compound O=C(N/N=C/c1ccccc1Cl)c1cccc2ccccc12 ; what growth value has been reported?
OUT: 127

IN: # growth lookup, item Cc1ccc(-[n+]2c3cc(N)c(C)cc3nc3cc(C)c(Nc4ccccc4)cc32)cc1
OUT: -20.6

IN: Reported growth, compound CCOCCC(=O)O : ____
OUT: 106

IN: So what's the measured growth for this one? COc1cc2nc3cc([N+](=O)[O-])ccc3c(NCCNCC(C)O)c2cc1OC (stereo not drawn)
OUT: -16.8

IN: State the recorded growth for this entry: COc1cc(OC)c(NC(=O)C(Sc2nc(C)cc(C)c2C#N)c2ccccc2)cc1Cl (stereo not drawn)
OUT: 94.1

IN: Form field: reported growth of NNc1ncnc2cccc(Cl)c12
OUT: 99.9

IN: Given the compound CC(C)CC1NC(C)(C)CO1 (stereo not drawn) , what is its reported growth?
OUT: 133
